Value source: patent US20150011566A1

tested-system: 5-HT1A receptors (Rattus norvegicus, UniProt P19327)
Construct: Intrinsic Activity at Native 5-HT1A Receptors; from tissue; host or cells: rat hippocampus membranes
Sequence (P19327 whole entry): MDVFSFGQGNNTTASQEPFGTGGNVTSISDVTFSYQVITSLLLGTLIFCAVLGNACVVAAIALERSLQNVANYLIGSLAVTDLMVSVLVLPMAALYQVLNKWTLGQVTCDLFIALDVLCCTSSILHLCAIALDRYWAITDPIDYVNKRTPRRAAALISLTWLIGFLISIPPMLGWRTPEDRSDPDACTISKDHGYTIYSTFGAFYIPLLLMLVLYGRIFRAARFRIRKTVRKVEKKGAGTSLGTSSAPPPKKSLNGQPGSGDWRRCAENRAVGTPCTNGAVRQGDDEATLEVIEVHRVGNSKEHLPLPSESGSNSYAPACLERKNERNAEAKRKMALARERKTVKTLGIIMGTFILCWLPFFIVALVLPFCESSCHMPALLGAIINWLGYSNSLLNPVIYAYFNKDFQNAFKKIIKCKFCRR
assay-overview: Binding of [3H]-8-OH-DPAT to 5-HT1A receptors (rat hippocampus membranes)
assay-context: Table 9; agonist radioligand [3H] 8-OH-DPAT; read-out: Ki high
Measured Ki, listed per entry.
Please reply with the bare figure in nM and do not write the unit itself.

{"compound": "CCCCCCCCN1CCN(c2ccccc2OC)CC1 [LDT 68]", "Ki, nM": 9}

Q. Report Ki for CCCCCCCN1CCN(c2ccccc2OC)CC1 [LDT 67] please.
A. 18

Q. Similarly, CCCCCCN1CCN(c2ccccc2OC)CC1 [LDT 66] ?
A. 5
